Data provenance: patent US9428503B2

- measured-target: UniProt:P42345
- assay-summary: Assay d) mTOR cellular potency assay (phospho-AKT Ser473 in MDA-MB-468 cells)
- test-parameters: MDA-MB-468 cells, phospho-AKT Ser473, 2 h; geometric mean where repeated; read-out: Assay d) mTOR Cell IC50
pIC50: −log10 of the molar value. Counter-ions that a name gives are not always drawn.
pIC50 values for the compounds below.

# compound, result-operator, pIC50
records = [
    ("CO[C@H]1C[C@@H](n2c(=O)n(C)c3cnc4ccc(-c5ccc(OCCCN6CCCCC6)nc5)cc4c32)C1", "=", 5.54),
    ("CNCCCOc1ccc(-c2ccc3ncc4c(c3c2)n([C@@H]2CCCOC2)c(=O)n4C)cn1", "=", 6.58),
    ("CO[C@H]1C[C@@H](n2c(=O)n(C)c3cnc4ccc(-c5ccc(OCCCN(C)C)nc5F)cc4c32)C1", "=", 5.42),
    ("CN(C)CCCOc1ccc(-c2ccc3ncc4c(c3c2)n([C@H]2CCOC2)c(=O)n4C)c(F)n1", "=", 5.42),
    ("CNCCCOc1ccc(-c2ccc3ncc4c(c3c2)n([C@H]2CCCOC2)c(=O)n4C)cn1", "=", 6.40),
    ("CN(C)CCCOc1ccc(-c2ccc3ncc4c(c3c2)n(C2CCOCC2)c(=O)n4C)c(F)n1", "=", 6.10),
    ("CO[C@H]1C[C@@H](n2c(=O)n(C)c3cnc4cc(F)c(-c5ccc(OCCCN6CCCC6)nc5)cc4c32)C1", "<", 4.76),
    ("CN(C)CCCOc1ccc(-c2ccc3ncc4c(c3c2)n([C@@H]2CCOC2)c(=O)n4C)cn1", "=", 5.63),
    ("Cn1c(=O)n([C@@H]2CCCOC2)c2c3cc(-c4ccc(OCCCN5CCC5)nc4)ccc3ncc21", "=", 6.30),
    ("CNCCCOc1ccc(-c2ccc3ncc4c(c3c2)n(C2CCOCC2)c(=O)n4C)cn1", "=", 6.72),
    ("O=c1[nH]c2cnc3ccc(-c4ccc(OCCCN5CCCCC5)nc4)cc3c2n1C1CCOCC1", "=", 4.97),
    ("CO[C@H]1CC[C@H](n2c(=O)n(C)c3cnc4ccc(-c5ccc(OCCCN(C)C)nc5)cc4c32)C1", "=", 6.44),
    ("Cn1c(=O)n([C@H]2CCCOC2)c2c3cc(-c4ccc(OCCCN5CCCCC5)nc4)c(F)cc3ncc21", "<", 4.52),
    ("Cn1c(=O)n(C2CCOCC2)c2c3cc(-c4ccc(OCCCN5CCCCC5)nc4)ccc3ncc21", "=", 4.91),
    ("Cn1c(=O)n(C2CCC2)c2c3cc(-c4ccc(OCCCN5CCCCC5)nc4)ccc3ncc21 [Example 57, trifluoroacetic acid salt]", "=", 5.24),
    ("CO[C@H]1CC[C@H](n2c(=O)n(C)c3cnc4cc(F)c(-c5ccc(OCCCN(C)C)nc5)cc4c32)C1", "=", 4.97),
    ("Cn1c(=O)n(C2CCOCC2)c2c3cc(-c4ccc(OCCCN5CCCC5)nc4)ccc3ncc21", "=", 5.80),
    ("CN(C)CCCOc1ccc(-c2ccc3ncc4[nH]c(=O)n(C5CCOCC5)c4c3c2)cn1", "=", 6.61),
    ("CN(C)CCCOc1ccc(-c2ccc3ncc4c(c3c2)n([C@@H]2CCOC2)c(=O)n4C)c(F)n1", "=", 5.35),
    ("CN(C)CCCOc1ccc(-c2ccc3ncc4c(c3c2)n(C2CCC2)c(=O)n4C)c(F)n1", "=", 5.27),
    ("CN(C)CCCOc1ccc(-c2ccc3ncc4c(c3c2)n([C@@H]2CCCOC2)c(=O)n4C)cn1", "=", 6.15),
    ("Cn1c(=O)n([C@@H]2CCCOC2)c2c3cc(-c4ccc(OCCCN5CCCC5)nc4)c(F)cc3ncc21", "<", 5.03),
    ("CO[C@H]1C[C@@H](n2c(=O)n(C)c3cnc4ccc(-c5ccc(OCCCN6CCC6)nc5)cc4c32)C1", "=", 5.65),
    ("CN(C)CCCOc1ccc(-c2ccc3ncc4c(c3c2)n(C2COC2)c(=O)n4C)c(F)n1", "=", 4.92),
    ("CN(C)CCCOc1ccc(-c2cc3c(cc2F)ncc2c3n(C3(C)CCOCC3)c(=O)n2C)cn1", "=", 5.31),
    ("CO[C@@H]1CC[C@@H](n2c(=O)n(C)c3cnc4cc(F)c(-c5ccc(OCCCN(C)C)nc5)cc4c32)C1", "<", 4.52),
    ("CO[C@H]1C[C@@H](n2c(=O)n(C)c3cnc4cc(F)c(-c5ccc(OCCCN(C)C)nc5F)cc4c32)C1", "=", 4.86),
    ("Cn1c(=O)n(C2COC2)c2c3cc(-c4ccc(OCCCN5CCCCC5)nc4)ccc3ncc21 [Example 56, trifluoroacetic acid salt]", "=", 4.91),
    ("CO[C@H]1CC[C@@H](n2c(=O)n(C)c3cnc4cc(F)c(-c5ccc(OCCCN(C)C)nc5)cc4c32)C1", "<", 4.52),
]
